EXPERIMENTAL TARGET: truncated form of human NaV 1.8 with full channel activity (Homo sapiens)
Sequence (Q9Y5Y9 126-1722 limits assumed): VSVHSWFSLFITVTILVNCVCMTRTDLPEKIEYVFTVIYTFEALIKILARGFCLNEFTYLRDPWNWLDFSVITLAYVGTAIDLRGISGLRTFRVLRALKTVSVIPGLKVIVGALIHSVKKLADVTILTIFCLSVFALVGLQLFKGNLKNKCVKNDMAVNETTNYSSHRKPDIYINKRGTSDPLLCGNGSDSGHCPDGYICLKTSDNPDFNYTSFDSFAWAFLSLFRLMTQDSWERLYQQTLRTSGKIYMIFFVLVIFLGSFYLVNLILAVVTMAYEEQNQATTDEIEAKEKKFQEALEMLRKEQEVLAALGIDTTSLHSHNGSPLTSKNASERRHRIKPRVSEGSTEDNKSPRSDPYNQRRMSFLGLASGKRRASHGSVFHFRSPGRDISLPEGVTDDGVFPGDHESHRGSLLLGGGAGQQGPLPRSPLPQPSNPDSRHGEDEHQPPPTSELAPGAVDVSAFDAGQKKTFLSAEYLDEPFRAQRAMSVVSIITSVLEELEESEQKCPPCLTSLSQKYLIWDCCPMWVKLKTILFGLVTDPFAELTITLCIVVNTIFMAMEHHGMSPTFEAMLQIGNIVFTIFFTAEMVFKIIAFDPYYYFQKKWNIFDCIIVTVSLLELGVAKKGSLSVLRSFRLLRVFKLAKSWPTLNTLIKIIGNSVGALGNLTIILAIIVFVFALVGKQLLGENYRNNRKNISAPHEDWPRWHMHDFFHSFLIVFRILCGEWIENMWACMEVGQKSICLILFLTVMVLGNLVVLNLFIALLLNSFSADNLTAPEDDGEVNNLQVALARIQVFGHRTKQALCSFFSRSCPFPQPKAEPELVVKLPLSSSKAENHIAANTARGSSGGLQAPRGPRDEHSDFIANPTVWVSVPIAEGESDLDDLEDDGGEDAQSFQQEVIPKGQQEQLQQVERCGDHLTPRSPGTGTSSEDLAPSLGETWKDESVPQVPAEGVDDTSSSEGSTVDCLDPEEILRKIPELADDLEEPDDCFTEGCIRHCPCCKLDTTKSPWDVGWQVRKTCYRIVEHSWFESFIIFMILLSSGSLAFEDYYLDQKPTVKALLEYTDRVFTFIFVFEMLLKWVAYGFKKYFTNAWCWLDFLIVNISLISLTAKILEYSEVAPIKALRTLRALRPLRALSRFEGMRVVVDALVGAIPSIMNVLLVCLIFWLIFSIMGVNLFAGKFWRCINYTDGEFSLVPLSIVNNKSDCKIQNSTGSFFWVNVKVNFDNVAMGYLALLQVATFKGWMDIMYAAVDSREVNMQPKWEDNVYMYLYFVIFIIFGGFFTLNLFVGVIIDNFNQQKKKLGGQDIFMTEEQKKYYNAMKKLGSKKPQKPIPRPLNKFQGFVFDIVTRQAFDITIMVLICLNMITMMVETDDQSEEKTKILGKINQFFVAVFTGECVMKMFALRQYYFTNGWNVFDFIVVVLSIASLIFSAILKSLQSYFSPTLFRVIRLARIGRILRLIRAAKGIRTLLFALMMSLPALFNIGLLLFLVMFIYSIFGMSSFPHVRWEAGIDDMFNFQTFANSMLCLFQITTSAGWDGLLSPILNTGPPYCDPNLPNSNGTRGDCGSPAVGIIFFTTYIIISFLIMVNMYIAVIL
PROTOCOL: E-VIPR Assay Method A for detecting and measuring Nav inhibition (HEK cells, membrane potential FRET dyes, electrical stimulation)
Format: cell-based
COND: HEK cells expressing human NaV 1.8, HS (human serum) in compound loading buffer, 11 point dose response, top dose 3 μM, Table 20A, read-out: Nav 1.8 MedChem Optical Assay EVIPR Assay Method A HS IC50
PROPERTY MEASURED: IC50 (nM)

Here's what some known entries look like.
[[record]]
compound_structure_string = "COc1cc(OC(F)(F)F)ccc1Oc1cc(C(F)(F)F)ccc1C(=O)Nc1cccc(C(N)=O)c1"
experimental_target = "truncated form of human NaV 1.8 with full channel activity (Homo sapiens)"
reported = 108

[[record]]
compound_structure_string = "NC(=O)c1cc(NC(=O)c2c(Oc3ccc(OC(F)(F)F)cc3)ccc(C(F)(F)F)c2F)ccc1Cl"
experimental_target = "truncated form of human NaV 1.8 with full channel activity (Homo sapiens)"
reported = 68

[[record]]
compound_structure_string = "[2H]C([2H])([2H])Oc1cc(OC(F)(F)F)ccc1Oc1cc(C(F)(F)F)cc(F)c1C(=O)Nc1ccc(C(N)=O)nc1"
experimental_target = "truncated form of human NaV 1.8 with full channel activity (Homo sapiens)"
reported = 55

[[record]]
compound_structure_string = "[2H]C([2H])([2H])Oc1cc(OC(F)(F)F)ccc1Oc1ccc(OC(F)(F)F)cc1C(=O)Nc1ccnc(C(N)=O)c1"
experimental_target = "truncated form of human NaV 1.8 with full channel activity (Homo sapiens)"
reported = 150

[[record]]
compound_structure_string = "NC(=O)c1cc(NC(=O)c2cc(F)c(C(F)(F)F)cc2Oc2ccc(OC(F)(F)F)cc2)ccc1F"
experimental_target = "truncated form of human NaV 1.8 with full channel activity (Homo sapiens)"
reported = 150

[[record]]
compound_structure_string = "NC(=O)c1cc(NC(=O)c2ccc(OC(F)(F)F)cc2Oc2ccc(OC(F)(F)F)cc2)ccn1"
experimental_target = "truncated form of human NaV 1.8 with full channel activity (Homo sapiens)"
reported = 1500


A. NC(=O)c1cc(NC(=O)c2c(Oc3ccc(OC(F)(F)F)cc3)ccc3c2CCC3(F)F)ccn1
B. [2H]c1cc(F)c(C(N)=O)cc1NC(=O)c1c(Oc2c([2H])cc(OC(F)(F)F)c([2H])c2[2H])ccc(C(F)(F)F)c1F
I need your help: which of the pair A , B has higher IC50? # respond with the chosen item's label
A
(A: 120 nM, B: 9 nM)
